assay: bioavailability of dextromethorphan after nasal, oral and intravenous administration (plasma levels, spectrofluorophotometric); type: in vivo, female beagle dogs; conditions: dog, plasma, 15 mg, nasal, dog #1, 1 min, HBr salt 15 mg/dog
reported-metric: concentration at 1 min (ng/mL)

line_notation=COc1ccc2c(c1)[C@]13CCCC[C@@H]1[C@H](C2)N(C)CC3 value_reported=72.1

---

experiment: bioavailability of dextromethorphan after nasal, oral and intravenous administration (plasma levels, spectrofluorophotometric); type: in vivo, female beagle dogs; details: dog, plasma, po, 15 mg, dog #2, 6 min, HBr salt 15 mg/dog
reported-metric: concentration at 0.1 h (ng/mL)

line_notation=COc1ccc2c(c1)[C@]13CCCC[C@@H]1[C@H](C2)N(C)CC3 value_reported=18.5

---

assay: bioavailability of dextromethorphan after nasal, oral and intravenous administration (plasma levels, spectrofluorophotometric); type: in vivo, female beagle dogs; conditions: dog, plasma, 15 mg, nasal, dog #3, 6 min, HBr salt 15 mg/dog
reported-metric: concentration at 0.1 h (ng/mL)

line_notation=COc1ccc2c(c1)[C@]13CCCC[C@@H]1[C@H](C2)N(C)CC3 reported_metric="concentration at 0.1 h" value_reported=493

---

test: bioavailability of dextromethorphan after nasal, oral and intravenous administration (plasma levels, spectrofluorophotometric); assay type: in vivo, female beagle dogs; settings: dog, plasma, po, 15 mg, dog #2, 35 min, HBr salt 15 mg/dog
reported-metric: concentration at 35 min (ng/mL)

line_notation=COc1ccc2c(c1)[C@]13CCCC[C@@H]1[C@H](C2)N(C)CC3 reported_metric="concentration at 35 min" value_reported=94.4

---

assay: bioavailability of dextromethorphan after nasal, oral and intravenous administration (plasma levels, spectrofluorophotometric); format: in vivo, female beagle dogs; conditions: dog, plasma, 15 mg, nasal, dog #3, 80 min, HBr salt 15 mg/dog
reported-metric: concentration at 80 min (ng/mL)

line_notation=COc1ccc2c(c1)[C@]13CCCC[C@@H]1[C@H](C2)N(C)CC3 reported_metric="concentration at 80 min" value_reported=93.3

---

assay: bioavailability of dextromethorphan after nasal, oral and intravenous administration (plasma levels, spectrofluorophotometric); assay type: in vivo, female beagle dogs; details: dog, plasma, 15 mg, nasal, dog #1, 12 min, HBr salt 15 mg/dog
reported-metric: concentration at 0.2 h (ng/mL)

line_notation=COc1ccc2c(c1)[C@]13CCCC[C@@H]1[C@H](C2)N(C)CC3 reported_metric="concentration at 0.2 h" value_reported=684

---

assay: bioavailability of dextromethorphan after nasal, oral and intravenous administration (plasma levels, spectrofluorophotometric); type: in vivo, female beagle dogs; settings: dog, plasma, 15 mg, nasal, dog #2, 12 min, HBr salt 15 mg/dog
reported-metric: concentration at 0.2 h (ng/mL)

line_notation=COc1ccc2c(c1)[C@]13CCCC[C@@H]1[C@H](C2)N(C)CC3 value_reported=888

---

assay: bioavailability of dextromethorphan after nasal, oral and intravenous administration (plasma levels, spectrofluorophotometric); assay type: in vivo, female beagle dogs; conditions: dog, plasma, iv, 15 mg, dog #3, 35 min, HBr salt 15 mg/dog
reported-metric: concentration at 35 min (ng/mL)

line_notation=COc1ccc2c(c1)[C@]13CCCC[C@@H]1[C@H](C2)N(C)CC3 reported_metric="concentration at 35 min" value_reported=102

---

assay: bioavailability of dextromethorphan after nasal, oral and intravenous administration (plasma levels, spectrofluorophotometric); format: in vivo, female beagle dogs; conditions: dog, plasma, iv, 15 mg, intravenous, average of three dogs, 15 mg/dog; read-out: AUC 0-120 min., Average ± S.E. (converted)
reported-metric: AUC(0-t) at 2 h

line_notation=COc1ccc2c(c1)[C@]13CCCC[C@@H]1[C@H](C2)N(C)CC3 reported_metric="AUC(0-t) at 2 h" value_reported="431 ng·h/mL"

---

assay: bioavailability of dextromethorphan after nasal, oral and intravenous administration (plasma levels, spectrofluorophotometric); format: in vivo, female beagle dogs; details: dog, plasma, 15 mg, nasal, dog #2, 1 min, HBr salt 15 mg/dog
reported-metric: concentration at 1 min (ng/mL)

line_notation=COc1ccc2c(c1)[C@]13CCCC[C@@H]1[C@H](C2)N(C)CC3 value_reported=89.1

---

experiment: bioavailability of dextromethorphan after nasal, oral and intravenous administration (plasma levels, spectrofluorophotometric); type: in vivo, female beagle dogs; conditions: dog, plasma, 15 mg, nasal, dog #2, 20 min, HBr salt 15 mg/dog
reported-metric: concentration at 20 min (ng/mL)

line_notation=COc1ccc2c(c1)[C@]13CCCC[C@@H]1[C@H](C2)N(C)CC3 value_reported=260

---

Assay: bioavailability of dextromethorphan after nasal, oral and intravenous administration (plasma levels, spectrofluorophotometric)
Type: in vivo, female beagle dogs
Conditions: dog, plasma, po, 15 mg, dog #3, 20 min, HBr salt 15 mg/dog
Experimental: The following study was undertaken to determine the bioavailability of dextromethorphan from nasal solution in comparison with the bioavailability of the drug when administered orally and intravenously. Three female beagle dogs weighing about 10 kg each were used for the study without fasting. […] After nasal, oral, and intravenous administration, blood was sampled from the cubital vein periodically. The blood sample, was centrifuged and 2.5 ml of plasma were analyzed. […]
reported-metric: concentration at 20 min (ng/mL)

compound="COc1ccc2c(c1)[C@]13CCCC[C@@H]1[C@H](C2)N(C)CC3 [dextromethorphan, d-3-methoxy-N-methylmorphinan]" value_reported=18.4

---

assay: bioavailability of dextromethorphan after nasal, oral and intravenous administration (plasma levels, spectrofluorophotometric); type: in vivo, female beagle dogs; settings: dog, plasma, 15 mg; nasal, relative to intravenous, 0-120 min
reported-metric: bioavailability at 2 h (%)

line_notation=COc1ccc2c(c1)[C@]13CCCC[C@@H]1[C@H](C2)N(C)CC3 unit_info=% value_reported=110

---

experiment: bioavailability of dextromethorphan after nasal, oral and intravenous administration (plasma levels, spectrofluorophotometric); type: in vivo, female beagle dogs; settings: dog, plasma, po, 15 mg, dog #1, 20 min, HBr salt 15 mg/dog
reported-metric: concentration at 20 min

line_notation=COc1ccc2c(c1)[C@]13CCCC[C@@H]1[C@H](C2)N(C)CC3 reported_metric="concentration at 20 min" value_reported="7.5 ng/mL"

---

experiment: bioavailability of dextromethorphan after nasal, oral and intravenous administration (plasma levels, spectrofluorophotometric); type: in vivo, female beagle dogs; conditions: dog, plasma, 15 mg; oral, relative to intravenous, 0-120 min
reported-metric: bioavailability at 2 h (%)

molecule="COc1ccc2c(c1)[C@]13CCCC[C@@H]1[C@H](C2)N(C)CC3 [dextromethorphan, d-3-methoxy-N-methylmorphinan]" value_reported=30.2

---

Test: bioavailability of dextromethorphan after nasal, oral and intravenous administration (plasma levels, spectrofluorophotometric)
Format: in vivo, female beagle dogs
Conditions: dog, plasma, iv, 15 mg, dog #3, 80 min, HBr salt 15 mg/dog
Procedure: The following study was undertaken to determine the bioavailability of dextromethorphan from nasal solution in comparison with the bioavailability of the drug when administered orally and intravenously. Three female beagle dogs weighing about 10 kg each were used for the study without fasting. […] After nasal, oral, and intravenous administration, blood was sampled from the cubital vein periodically. The blood sample, was centrifuged and 2.5 ml of plasma were analyzed. […]
reported-metric: concentration at 80 min (ng/mL)

line_notation=COc1ccc2c(c1)[C@]13CCCC[C@@H]1[C@H](C2)N(C)CC3 reported_metric="concentration at 80 min" unit_info=ng/mL value_reported=46.2

---

assay: bioavailability of dextromethorphan after nasal, oral and intravenous administration (plasma levels, spectrofluorophotometric); format: in vivo, female beagle dogs; conditions: dog, plasma, po, 15 mg, dog #3, 55 min, HBr salt 15 mg/dog
reported-metric: concentration at 55 min

line_notation=COc1ccc2c(c1)[C@]13CCCC[C@@H]1[C@H](C2)N(C)CC3 reported_metric="concentration at 55 min" value_reported="65 ng/mL"

---

assay: bioavailability of dextromethorphan after nasal, oral and intravenous administration (plasma levels, spectrofluorophotometric); format: in vivo, female beagle dogs; settings: dog, plasma, po, 15 mg, dog #2, 80 min, HBr salt 15 mg/dog
reported-metric: concentration at 80 min (µg/mL)

line_notation=COc1ccc2c(c1)[C@]13CCCC[C@@H]1[C@H](C2)N(C)CC3 reported_metric="concentration at 80 min" value_reported=0.0868

---

test: bioavailability of dextromethorphan after nasal, oral and intravenous administration (plasma levels, spectrofluorophotometric); type: in vivo, female beagle dogs; settings: dog, plasma, 15 mg, nasal, dog #3, 3 min, HBr salt 15 mg/dog
reported-metric: concentration at 0.05 h

line_notation=COc1ccc2c(c1)[C@]13CCCC[C@@H]1[C@H](C2)N(C)CC3 value_reported="428 ng/mL"

---

test: bioavailability of dextromethorphan after nasal, oral and intravenous administration (plasma levels, spectrofluorophotometric); assay type: in vivo, female beagle dogs; details: dog, plasma, 15 mg, nasal, dog #1, 35 min, HBr salt 15 mg/dog
reported-metric: concentration at 35 min (ng/mL)

line_notation=COc1ccc2c(c1)[C@]13CCCC[C@@H]1[C@H](C2)N(C)CC3 value_reported=276

Source of measurements: patent US4454140A
